Kindly state protein stability index for each of the entries shown.
B1: TRIM63 (parent)
chain: QEKKLSFIEALIQQYQEQLDKSTK

Variants of: B1
test.details: protein stability index of a GFP-peptide fusion (GPS, HEK-293T) (PSI 1-6); higher = more stable;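 note: lentivirally expressed fusions sorted by FACS into six bins by GFP to DsRed ratio, PSI derived from sequencing read proportions per bin multiplied by bin number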
assay.setup: c terminus: a fixed tail appended
Just the number, please, no unit after it.

Q: Would you kindly share the measured protein stability index for L19R ?
Ans: 2.91

Q: Would you kindly share the measured protein stability index for K4G ?
Ans: 3.03

Q: Would you kindly share the measured protein stability index for Q14N ?
Ans: 3.03

Q: Would you kindly share the measured protein stability index for E2G ?
Ans: 2.93
